Data credit: PubChem BioAssay

Collected z-score values appear next to each entry.
Assay: inhibitors of hydroxyurea-induced Chk1 phosphorylation, primary screen, imaging, HeLa, phospho-Chk1 nuclear intensity (AID 1187); also: test concentration not given here
Settings: hydroxyurea-induced phospho-Chk1 immunofluorescence imaging, higher = more signal
measurement-type: z-score

- compound: "CC[C@H]1C2=C3C(CC[C@H]4C(OCc5ccc(F)cc5C(F)(F)F)OC[C@](C)([C@@H]34)N(C(=O)OC(C)(C)C)C2)C2COC(=O)OCC21 (some centres not stated)"
  measurement-type: "z-score"
  readout-value: 0.722
- compound: "C=CCOC(=O)[C@@H]1[C@H]2C(=O)O[C@H](c3ccccc3)[C@H](c3ccccc3)N2[C@H](c2ccc(OCCOC(=O)[C@H]3C[C@H]4C(=O)N[C@@H](CCCCNC(C)=O)C(=O)N4[C@H]3c3cccc(OCCO)c3)cc2)[C@@]12C(=O)Nc1ccc(I)cc12"
  measurement-type: "z-score"
  readout-value: -0.929
- compound: "C=C(C(=O)CC[C@H](OC(=O)c1cccnc1)c1cccc(OCCO)c1)C(C)C"
  measurement-type: "z-score"
  readout-value: -0.453
- compound: "CCCC[C@@H]1C[C@H]1[C@@H](NC(=O)c1cccnc1)c1ccc(-c2ccccc2)cc1"
  measurement-type: "z-score"
  readout-value: 0.452
- compound: "COCCCNC(=O)[C@@]1(Sc2ccc(C)cc2)CC(=O)N(Cc2cc(C(F)(F)F)cc(C(F)(F)F)c2)[C@@H]1c1ccc(CO)cc1"
  measurement-type: "z-score"
  readout-value: 0.0411
- compound: "O=C1NC(=O)C2C1C=CC(C(O)c1c(F)cccc1Cl)N2Nc1ccccn1 (configuration not stated)"
  measurement-type: "z-score"
  readout-value: 0.135
- compound: "CC1CC/C=C\\[C@H]2OC34C=CCN(c5ccc6ccccc6c5)C(=O)[C@H]3N(C(CO)C(C)C)C(=O)[C@@H]4C2C(=O)O1 (some centres not stated)"
  measurement-type: "z-score"
  readout-value: 0.604
